- Test summary: Screening of bisVCap and bisVP with a range of drugs (hot stage melt, polarized optical microscopy)
- Type: physicochemical
- Test context: drug:bisVCap 1:1 mol ratio, ground, melted, cooled; overnight / 18 hours at room temperature
Readout name: crystallinity by polarized light microscopy, drug with bisVCap

Example results:
# Molecule, Measured value
records = [
    ("CN(C)C(=N)N=C(N)N", "crystallized overnight"),
    ("NC(=O)N1c2ccccc2C=Cc2ccccc21 [carbamazepine]", "appear amorphous"),
    ("NNC(=O)c1ccncc1", "appear amorphous"),
    ("NCCc1ccc(O)c(O)c1", "appear amorphous"),
    ("Cn1c(=O)c2c(ncn2C)n(C)c1=O", "crystallized overnight"),
]

Q: I have this molecule here, Cc1cccc(C)c1OCC(C)N (centres unmarked) , and I need its recorded crystallinity by polarized light microscopy, drug with bisVCap.
A: appear amorphous

Q: And then CC(C)Cc1ccc(C(C)C(=O)O)cc1 (centres unmarked) , what is it?
A: appear amorphous

Q: Queued: Cc1c(Cl)cccc1Nc1ccccc1C(=O)O
A: appear amorphous

Q: Next molecule up: CCc1cc(C(N)=S)ccn1 [ethionamide]
A: appear amorphous

Q: Now give it for CCCC(C)(COC(N)=O)COC(=O)NC(C)C (centres unmarked) too.
A: appear amorphous

Q: Follow-up entry: CCOC(=O)c1ccc(N)cc1
A: crystallized overnight
